Catalogue of melting point readings, one per entry.

Example results:
>>> recordedvalue("N=C(Nc1ccccc1[N+](=O)[O-])Nc1ccccc1[N+](=O)[O-]")
"136 to 138 °C"
>>> recordedvalue("N=C(Nc1ccc2ncccc2c1)Nc1ccc2ncccc2c1")
"133 to 134 °C"
>>> recordedvalue("N=C(Nc1ccc(Br)c2ccccc12)Nc1ccc(Br)c2ccccc12")
"128 to 130 °C"

Okay, now this compound:
Recorded melting point (compound N=C(Nc1ccc(F)cc1)Nc1ccc(F)cc1 ): 146 to 148 °C

====

measuredOn: BACE1 enzyme (Homo sapiens)
Construct: purchased Sigma-Aldrich CS0010
Sequence (P56817 46-501): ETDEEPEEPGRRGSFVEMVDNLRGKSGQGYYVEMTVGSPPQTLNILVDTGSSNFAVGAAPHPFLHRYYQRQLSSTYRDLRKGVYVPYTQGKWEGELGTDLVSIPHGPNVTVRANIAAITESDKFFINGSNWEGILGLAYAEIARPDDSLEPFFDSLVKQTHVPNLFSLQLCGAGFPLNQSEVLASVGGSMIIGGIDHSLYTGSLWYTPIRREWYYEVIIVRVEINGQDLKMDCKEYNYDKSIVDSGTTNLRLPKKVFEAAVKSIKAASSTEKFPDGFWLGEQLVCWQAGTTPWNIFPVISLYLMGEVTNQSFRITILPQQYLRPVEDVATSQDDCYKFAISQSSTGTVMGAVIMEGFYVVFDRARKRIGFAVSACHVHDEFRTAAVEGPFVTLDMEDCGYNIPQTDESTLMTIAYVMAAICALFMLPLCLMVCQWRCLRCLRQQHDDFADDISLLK
runDescription: BACE1 FRET-based inhibitory activity assay (Sigma-Aldrich kit CS0010)
Type: biochemical
testParameters: BACE1 FRET assay, pH 4.5, 37°C, 75 min; read-out: IC50
pIC50: −log10 of the molar value.
assayMetric: pIC50

Example results:
>>> recordedvalue("N=C(Nc1ccc(F)c(F)c1)Nc1ccc(F)c(F)c1")
4.15
>>> recordedvalue("N=C(Nc1ccc(Cl)cc1F)Nc1ccc(Cl)cc1F")
3.76

(P) N=C(Nc1ccc(Br)c2ccccc12)Nc1ccc(Br)c2ccccc12
(Q) N=C(Nc1cc(F)c2ccccc2c1)Nc1cc(F)c2ccccc2c1
Input line: Higher pIC50 between P and Q ? API: response body contains the label of the selected item.
Output line: Q
(Q: 6.99, P: 3.63)
